Quick list: %Activity, SIRT2 per entry.
- tested.on: SIRT2 (Homo sapiens, UniProt Q8IXJ6)
- Sequence (Q8IXJ6 whole entry): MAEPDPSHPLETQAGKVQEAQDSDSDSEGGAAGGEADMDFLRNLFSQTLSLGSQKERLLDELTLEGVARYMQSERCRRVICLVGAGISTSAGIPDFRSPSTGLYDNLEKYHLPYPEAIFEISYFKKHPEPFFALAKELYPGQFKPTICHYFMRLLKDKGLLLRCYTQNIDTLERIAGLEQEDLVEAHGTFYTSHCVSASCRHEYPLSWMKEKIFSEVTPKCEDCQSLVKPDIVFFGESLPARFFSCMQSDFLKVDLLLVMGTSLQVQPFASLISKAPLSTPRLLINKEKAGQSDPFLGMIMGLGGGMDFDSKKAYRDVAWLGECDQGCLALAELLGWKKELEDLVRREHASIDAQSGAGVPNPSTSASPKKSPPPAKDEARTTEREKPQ
- protocol: Continuous fluorogenic sirtuin inhibition assay, SIRT2 (tBuK peptides, TB)
- Format: biochemical
- assay.setup: inhibitor 0.5 µM; single trials; 0.5 µM
Starred links: 1 amine or outer side, 2 acyl side, 3 side chain; linkers in the order of their positions; H or OH if unused. Non-standard residues stand in square brackets, D forms with d. Residues, ends and D or L forms follow the SMILES beside them. X1 = CCCC(=S)NCCCC[C@H](N[*:1])C(=O)[*:2]

| compound | tested.on | %Activity, SIRT2 [%] |
| --- | --- | --- |
| CCCC(=S)NCCCC[C@H](NC(=O)[C@@H](NC(=O)[C@@H](NC(=O)[C@H](CS)NC(=O)[C@@H](N)[C@@H](C)O)[C@@H](C)O)C(C)C)C(=O)N[C@H](C(=O)NCC(N)=O)[C@@H](C)CC [S2P04-tBuK] (H-TCTV[X1]IG-NH2) | SIRT2 (Homo sapiens, UniProt Q8IXJ6) | 6.5384 |
| CCCC(=S)NCCCC[C@H](NC(=O)[C@@H](NC(=O)[C@@H](NC(=O)[C@@H](N)CS)[C@@H](C)O)C(C)C)C(=O)N[C@H](C(N)=O)[C@@H](C)CC [S2P04-5-tBuK] (H-CTV[X1]I-NH2) | SIRT2 (Homo sapiens, UniProt Q8IXJ6) | 9.5933 |
| CCCC(=S)NCCCC[C@H](NC(=O)[C@H](Cc1ccccc1)NC(=O)[C@@H](NC(=O)[C@@H](N)CS)[C@@H](C)O)C(=O)N[C@H](C(=O)N1CCC[C@H]1C(=O)N[C@H](C(N)=O)[C@@H](C)O)C(C)C [S2P07-tBuK] (H-CTF[X1]VPT-NH2) | SIRT2 (Homo sapiens, UniProt Q8IXJ6) | 9.1144 |
| CCCC(=S)NCCCC[C@H](NC(=O)[C@@H](NC(=O)[C@@H](NC(=O)[C@H](CS)NC(C)=O)[C@@H](C)O)C(C)C)C(=O)N[C@H](C(N)=O)[C@@H](C)CC [Ac-S2P04-5-tBu] (Ac-CTV[X1]I-NH2) | SIRT2 (Homo sapiens, UniProt Q8IXJ6) | 12.664 |
| CCCC(=S)NCCCC[C@H](NC(=O)OCc1ccccc1)C(=O)Nc1ccccc1 [TB, reference compound] | SIRT2 (Homo sapiens, UniProt Q8IXJ6) | 98.9568 |

* * *

- tested.on: SIRT3 (Homo sapiens, UniProt Q9NTG7)
- Sequence (Q9NTG7 1-399): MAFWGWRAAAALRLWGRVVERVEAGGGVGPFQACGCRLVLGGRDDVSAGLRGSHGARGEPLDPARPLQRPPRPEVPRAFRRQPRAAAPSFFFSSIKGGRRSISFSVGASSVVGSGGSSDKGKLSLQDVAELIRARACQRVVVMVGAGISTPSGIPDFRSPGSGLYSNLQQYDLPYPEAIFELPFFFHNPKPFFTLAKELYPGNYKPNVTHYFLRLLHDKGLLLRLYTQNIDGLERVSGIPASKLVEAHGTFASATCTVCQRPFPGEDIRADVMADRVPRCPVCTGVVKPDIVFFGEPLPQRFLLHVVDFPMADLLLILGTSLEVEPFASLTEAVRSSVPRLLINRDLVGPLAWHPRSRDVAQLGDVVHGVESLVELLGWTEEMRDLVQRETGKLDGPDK
Starred links: 1 amine or outer side, 2 acyl side, 3 side chain; linkers in the order of their positions; H or OH if unused. Non-standard residues stand in square brackets, D forms with d. Residues, ends and D or L forms follow the SMILES beside them. X1 = CCCC(=S)NCCCC[C@H](N[*:1])C(=O)[*:2]
parameter.measured: IC50 (µM)

| compound | result.units | comparison.sign | measurement |
| --- | --- | --- | --- |
| CCCC(=S)NCCCC[C@H](NC(=O)OCc1ccccc1)C(=O)Nc1ccccc1 [TB, reference compound] | µM | > | 150 |
| CCCC(=S)NCCCC[C@H](NC(=O)[C@@H](NC(=O)[C@@H](NC(=O)[C@H](CS)NC(=O)[C@@H](N)[C@@H](C)O)[C@@H](C)O)C(C)C)C(=O)N[C@H](C(=O)NCC(N)=O)[C@@H](C)CC [S2P04-tBuK] (H-TCTV[X1]IG-NH2) | µM | = | 14 |

Attribution: paper PMC7070036
